Reference for the values: ChEMBL document CHEMBL6134930

- Assay method text: Terminal half life in Sprague-Dawley rat at 1 mg/kg, iv measured up to 8 hrs by LC-MS/MS analysis
- Type: ADME, organism-based
- Experimental conditions: in vivo, read-out: beta t1/2 (converted)
Endpoint: half-life
Include the unit after the number when you answer.

Give half-life for the following compound: CN(C)C(=O)c1ccc(-c2n[nH]c3ncc(-c4ccc5c(c4)CC[C@@H](N4C6COCC4C6)CC5)cc23)cc1
2.2 h

---

We begin with a simple list: items and their reported clearance.
- Assay method text: Clearance in Sprague-Dawley rat at 0.5 mg/kg, iv measured up to 24 hrs by LC-MS/MS analysis
- Format: ADME, organism-based
- Experimental conditions: in vivo
Expressed in mL/min/kg, but write only the number.

Solved entries (count: 5):
Substance smiles: COCCOc1ccc(-c2n[nH]c3ncc(-c4ccc5c(c4)CC[C@@H](N4C6COCC4C6)CC5)cc23)cc1
clearance (mL/min/kg): 15

Substance smiles: O=C1OCCN1c1ccc(-c2n[nH]c3ncc(-c4ccc5c(c4)CC[C@@H](N4C6COCC4C6)CC5)cc23)cc1
clearance (mL/min/kg): 8.17

Substance smiles: Cc1cccnc1-c1ccc(-c2n[nH]c3ncc(-c4ccc5c(c4)CC[C@@H](N4C6COCC4C6)CC5)cc23)nc1
clearance (mL/min/kg): 10.8

Substance smiles: Cc1cccnc1-c1ccc(-c2n[nH]c3ncc(-c4ccc5c(c4)CC[C@@H](N4C6COCC4C6)CC5)cc23)cc1
clearance (mL/min/kg): 2.67

Substance smiles: c1cc2c(cc1-c1cnc3[nH]nc(-c4ccc(N5C[C@H]6C[C@@H]5CO6)cc4)c3c1)CC[C@@H](N1C3COCC1C3)CC2
clearance (mL/min/kg): 38.3

Now look at this one.
Give clearance for the following compound: Cc1cccnc1-c1ccc(-c2c[nH]c3ncc(-c4ccc5c(c4)CC[C@@H](N4C6COCC4C6)CC5)cc23)cc1
2.67
